system: RPMI-8226 leukemia; assay: NCI tumour cell line growth inhibition, 48 h; in the data active = GI50 below about 0.43 µM; inactive = the rest
Give your call using only these classes: TRUE for active, FALSE for inactive

Recorded results for 5 compounds are shown here.
Compound	System Under Test	Group
COc1ccc(CN2CCc3c(Sc4ccccc4)nc(N)nc3C2=O)c(OC)c1	RPMI-8226 leukemia	FALSE
O=NNc1ccc(S(=O)c2ccccc2)cn1 (stereo unspecified)	RPMI-8226 leukemia	FALSE
COC(=O)c1cc2cc(-c3ccc(OC)cc3)cnc2[nH]1	RPMI-8226 leukemia	FALSE
O=C(C(Br)C(Br)c1ccccc1)C(Br)C(Br)c1ccccc1 (stereo unspecified)	RPMI-8226 leukemia	TRUE
O=c1ccc(N=Nc2ccccc2)ccc1Cl	RPMI-8226 leukemia	FALSE

Here's the next entry for you.
Give the logged outcome of this assay for the following compound: O=C(NC1CCCCC1)NS(=O)(=O)c1ccc(-n2nc3c(c2-c2cccs2)Cc2ccccc2-3)cc1
FALSE
